- System: Trypanosoma cruzi
- METHOD: Trypanocidal activity against Trypanosoma cruzi Y trypomastigotes infected in mouse macrophage at 32 uM
- Format: functional
I'd appreciate it if you could supply Activity values for the items below.
Could you give the number and then its unit, please?

Sample records with Activity:
COc1cc([C@H]2O[C@@H](c3ccc(O)c(OC)c3)[C@H](C)[C@@H]2C)ccc1O: 48%
COc1ccc([C@H]2O[C@@H](c3ccc(OC)c(OC)c3)[C@H](C)[C@@H]2C)cc1OC: 59.9%

Please supply Activity for each of the following items, keeping them in order.
1. COc1ccc([C@@H]2O[C@H](c3ccc4c(c3)OCO4)[C@@H](C)[C@@H]2C)cc1OC
2. COc1ccc([C@@H]2O[C@H](c3ccc4c(c3)OCO4)[C@@H](C)[C@H]2C)cc1OC

[A]
1. 60.3%
2. 94%

Items follow; give Activity for each.
1. COc1cc([C@H]2O[C@@H](c3ccc(OC)c(OC)c3)[C@H](C)[C@@H]2C)ccc1O
2. COc1ccc([C@H]2O[C@H](c3ccc(OC)c(OC)c3)[C@@H](C)[C@H]2C)cc1OC
3. COc1cc([C@H]2O[C@@H](c3ccc(OC)c(OC)c3)[C@@H](C)[C@@H]2C)ccc1O

[A]
1. 18%
2. 55.6%
3. 47.6%
